For each of the compounds below, state its Measured concentration after storage.
Experiment: Stability of QC samples of the analytes in rat plasma under storage conditions
Type: physicochemical
Details: spiked 8,000 ng/mL, room temperature for 4 h, n = 6
Description: Preparation of quality control (QC) samples with three concentrations (low, medium, and high) of 16, 160, and 3,200 ng/ml for ellagic acid; 1.6, 16, 320 ng/ml for protocatechuic acid, ethyl gallate and 1,2,3,4,6-O-pentagalloylglucose; 40, 400 and 8,000 ng/ml for chebulic acid, gallic acid, corilagin and chebulinic acid and 160, 1,600, 32000 ng/ml for chebulagic acid. Both QC samples and stock solutions were stored in a refrigerator at 4°C. […]

For every item below, please supply its Measured concentration after storage.
1. O=C(O[C@@H]1O[C@@H]2COC(=O)c3cc(O)c(O)c(O)c3-c3c(cc(O)c(O)c3O)C(=O)O[C@H]([C@H]1O)[C@@H]2O)c1cc(O)c(O)c(O)c1
2. O=C(O)C[C@H](C(=O)O)[C@H]1c2c(cc(O)c(O)c2O)C(=O)O[C@@H]1C(=O)O
3. O=C(O)c1cc(O)c(O)c(O)c1
4. O=C(O)C[C@@H]1C(=O)O[C@H]2[C@H](OC(=O)c3cc(O)c(O)c(O)c3)[C@@H](OC(=O)c3cc(O)c(O)c4c3[C@H]1[C@H](O)C(=O)O4)[C@H](OC(=O)c1cc(O)c(O)c(O)c1)O[C@@H]2COC(=O)c1cc(O)c(O)c(O)c1

stdout:
1: 8,930.5 ± 535.3 ng/mL; 2: 7,996.4 ± 517.7 ng/mL; 3: 8,051.2 ± 472.7 ng/mL; 4: 8,592.3 ± 543.8 ng/mL
